- Test system: IGROV1 ovarian
- testDescription: NCI-60 one-dose screen, 48 h (100 = growth as untreated, 0 = no growth, -100 = all killed)
- conditionNotes: 10 µM
The panel holds about 83,000 compounds, 20% with a hit somewhere; the sample as a whole holds those more often.
measurementType: growth (%)
Numbers only here, please. The scale is %.

compound=Cc1cc(N(CCOS(C)(=O)=O)CCOS(C)(=O)=O)ccc1C=Nc1ccc(-c2nc(Cc3ccccc3)sc2C)cc1 measurementtype=growth datavalue=11.4

Sample CC1=CC(=C(c2ccc(N)cc2)c2ccc(N)cc2)C=CC1=N — what was its growth?
70

Sample Cc1ccc(Sc2ccccc2N)cc1 — what was its growth?
76.2

Sample C#CCN(Cc1ccc2nc(N)[nH]c(=O)c2c1)c1ccc(C(=O)NC(CCC(=O)O)C(=O)O)cc1 (centres undefined) — what was its growth?
109

These measurements were taken from PubChem BioAssay (NCI).
